This collection of values is drawn from patent US20030050306A1.

Measured Target: cloned human 5-HT1A receptors (Homo sapiens, UniProt P08908)
Construct: expressed in transfected cells; host or cells: HeLa cells (HA7)
Sequence (P08908 whole entry): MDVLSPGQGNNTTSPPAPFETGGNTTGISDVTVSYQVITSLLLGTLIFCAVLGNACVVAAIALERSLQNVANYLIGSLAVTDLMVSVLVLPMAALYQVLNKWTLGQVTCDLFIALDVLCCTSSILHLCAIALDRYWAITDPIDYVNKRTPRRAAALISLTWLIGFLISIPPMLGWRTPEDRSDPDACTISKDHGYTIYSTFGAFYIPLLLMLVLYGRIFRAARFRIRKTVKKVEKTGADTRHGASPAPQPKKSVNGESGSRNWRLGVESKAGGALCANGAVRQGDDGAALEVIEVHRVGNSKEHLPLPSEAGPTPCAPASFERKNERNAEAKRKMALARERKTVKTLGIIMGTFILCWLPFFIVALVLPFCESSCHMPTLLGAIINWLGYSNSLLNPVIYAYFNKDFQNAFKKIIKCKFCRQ
Test Protocol: Inhibition of 3H-5-CT binding to human 5-HT1A receptors
Condition Summary: cloned human 5-HT1A receptors in HeLa cells (HA7)
pIC50: −log10 of the molar value.
Observation Type: pIC50

Examples with answers:
structure=Fc1ccc(OCCCCN2CCN(c3cccc4c3OCCO4)CC2)c(Br)c1 observed_result=8.10
structure=Fc1ccc(OCCCN2CCN(c3cccc4ccsc34)CC2)c(F)c1 observed_result=8.46
structure=Fc1ccc(OCCCN2CCN(c3cccc4c3OCCO4)CC2)c(Br)c1 observed_result=8.31

a: c1ccc(SCCCN2CCN(c3cccc4c3OCCO4)CC2)cc1
b: Cc1cccc(Cl)c1SCCCCN1CCN(c2cccc3c2OCCO3)CC1
c: Clc1ccccc1OCCCN1CCN(c2cccc3c2OCCO3)CC1
d: Clc1cccc(SCCN2CCN(c3cccc4c3OCCO4)CC2)c1Cl
## Task Write the entries in order, lowest recorded pIC50 first. Respond with the label ranking, as requested.
## Result c, b, a, d
(c: 8.00, b: 8.29, a: 8.55, d: 8.80)

P: Fc1ccc(OCCCN2CCN(c3cccc4c3OCCO4)CC2)c(F)c1
Q: N#Cc1cc(Br)c(OCCCN2CCN(c3cccc4c3OCCO4)CC2)c(Br)c1
R: Fc1cc(F)c(OCCCN2CCN(c3cccc4ccsc34)CC2)c(Br)c1
S: Fc1ccc(SCCN2CCN(c3cccc4c3OCCO4)CC2)cc1
T: Cc1ccc(SCCN2CCN(c3cccc4c3OCCO4)CC2)c(C)c1
## Task Write the entries in order, lowest recorded pIC50 first. Respond with the label ranking, as requested.
## Result S, T, R, P, Q
(S: 7.01, T: 7.68, R: 8.07, P: 8.31, Q: 8.66)
